Property: IC50; scope: individual compounds
# Experimental System: CCK receptor (brain, cerebral cortex) (Cavia porcellus)
# Construct: The cerebral cortex is dissected and used as a receptor source; from tissue; host or cells: cerebral cortex of male Hartley guinea pig, washed membrane suspension
# Sequence (H0VZC5 1-426): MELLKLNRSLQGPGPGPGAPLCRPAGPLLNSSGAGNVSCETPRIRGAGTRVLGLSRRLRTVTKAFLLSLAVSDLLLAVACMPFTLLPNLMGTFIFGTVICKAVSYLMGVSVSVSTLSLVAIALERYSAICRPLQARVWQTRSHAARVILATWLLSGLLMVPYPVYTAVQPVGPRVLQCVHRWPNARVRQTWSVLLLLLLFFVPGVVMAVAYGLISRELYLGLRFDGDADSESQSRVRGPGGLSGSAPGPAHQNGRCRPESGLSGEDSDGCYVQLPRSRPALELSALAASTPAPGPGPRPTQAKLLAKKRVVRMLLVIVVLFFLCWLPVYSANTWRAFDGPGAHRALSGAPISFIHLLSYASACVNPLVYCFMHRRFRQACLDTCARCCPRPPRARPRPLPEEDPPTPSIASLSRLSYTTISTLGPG
# Measurement Description: CCK Receptor Binding (brain)
# Parameters: species or system guinea pig (male Hartley)
# Test Parameters: guinea pig cerebral cortex; 125I-CCK-33, pH 6.5, 25° C., 2 hours
Kindly provide the numeric value in µM only, without the unit symbol.

These solved cases illustrate the format of a correct answer.
O=C1Cn2c(nc3ccccc3c2=O)-c2ccccc2N1
100
CN1C(=O)[C@H](Cc2c[nH]c3ccccc23)n2c(nc3ccccc3c2=O)-c2ccccc21 [Example 19, hydrate]
51
O=C1Nc2ccccc2-c2nc3ccccc3c(=O)n2[C@@H]1Cc1c[nH]c2ccccc12 [Example 13, hydrate]
100
C[C@H]1C(=O)Nc2ccccc2-c2nc3ccccc3c(=O)n21
100
O=C1Nc2ccccc2-c2nc3ccccc3c(=O)n2[C@H]1Cc1c[nH]c2ccccc12 [*, reference compound]
110

Please find the next compound below.
Inquiry: Given the entry O=C1Nc2ccccc2-c2nc3ccccc3c(=O)n2[C@H]1Cc1ccc(O)cc1 [Example 16, hydrate] , report its measured IC50.
Reply text: 100
